Test details: Cmax in mouse at 10 mg/kg, po
Assay type: ADME, organism-based
Design: dose 10 mg/kg, route oral
Assay setup: in vivo

[
  {
    "Mol": "C[C@@H](NC(=O)Nc1cccc(-c2nnnn2C)c1)[C@@H](O)CN1CCC[C@@H](Cc2ccc(F)cc2)C1",
    "Cmax (nM)": 1540
  }
]

----------
Test details: Bioavailability in mouse at 10 mg/kg, po
Assay type: ADME, organism-based
Assay setup: in vivo

[
  {
    "Mol": "C[C@@H](NC(=O)Nc1cccc(-c2nnnn2C)c1)[C@@H](O)CN1CCC[C@@H](Cc2ccc(F)cc2)C1",
    "bioavailability, %": 57
  }
]

----------
Test details: Cmax in rat at 50 mg/kg, po
Type: ADME, organism-based
Parameters: dose 50 mg/kg, route oral
Assay setup: in vivo

[
  {
    "Mol": "C[C@@H](NC(=O)Nc1cccc(-c2nnnn2C)c1)[C@@H](O)CN1CCC[C@@H](Cc2ccc(F)cc2)C1",
    "Cmax [µM]": 3.17
  }
]

----------
Test details: AUC in mouse at 10 mg/kg, po
Format: ADME, organism-based
Design: dose 10 mg/kg, route oral
Assay setup: plasma
Quantity kind: AUC (µM·h)

[
  {
    "Mol": "C[C@@H](NC(=O)Nc1cccc(-c2nnnn2C)c1)[C@@H](O)CN1CCC[C@@H](Cc2ccc(F)cc2)C1",
    "Quantity kind": "AUC",
    "Recorded value": 3.15
  }
]

----------
Test details: AUC in rat at 50 mg/kg, po
Format: ADME, organism-based
Set-up: dose 50 mg/kg, route oral
Assay setup: plasma
Quantity kind: AUC (µM·h)

[
  {
    "Mol": "C[C@@H](NC(=O)Nc1cccc(-c2nnnn2C)c1)[C@@H](O)CN1CCC[C@@H](Cc2ccc(F)cc2)C1",
    "Quantity kind": "AUC",
    "Recorded value": 21.3
  }
]

----------
Test details: Cmax in dog at 10 mg/kg, po
Format: ADME, organism-based, Canis lupus familiaris
Design: dose 10 mg/kg, route oral
Assay setup: in vivo

[
  {
    "Mol": "C[C@@H](NC(=O)Nc1cccc(-c2nnnn2C)c1)[C@@H](O)CN1CCC[C@@H](Cc2ccc(F)cc2)C1",
    "Cmax": "926 nM"
  }
]

----------
Test details: AUC in cynomolgus monkey at 10 mg/kg, po
Format: ADME, organism-based, Macaca fascicularis
Parameters: dose 10 mg/kg, route oral
Assay setup: plasma

[
  {
    "Mol": "C[C@@H](NC(=O)Nc1cccc(-c2nnnn2C)c1)[C@@H](O)CN1CCC[C@@H](Cc2ccc(F)cc2)C1",
    "Value units": "µM·h",
    "AUC": 1.05
  }
]

----------
Test details: Cmax in cynomolgus monkey at 10 mg/kg, po
Type: ADME, organism-based, Macaca fascicularis
Design: dose 10 mg/kg, route oral
Assay setup: in vivo

[
  {
    "Mol": "C[C@@H](NC(=O)Nc1cccc(-c2nnnn2C)c1)[C@@H](O)CN1CCC[C@@H](Cc2ccc(F)cc2)C1",
    "Cmax (nM)": 561
  }
]

----------
Test details: AUC in dog at 10 mg/kg, po
Format: ADME, organism-based, Canis lupus familiaris
Design: dose 10 mg/kg, route oral
Assay setup: plasma

[
  {
    "Mol": "C[C@@H](NC(=O)Nc1cccc(-c2nnnn2C)c1)[C@@H](O)CN1CCC[C@@H](Cc2ccc(F)cc2)C1",
    "Value units": "µM·h",
    "AUC": 2.74
  }
]
